Target: Anti-hC5 Antibody
Sequence (constant, as listed by the source limits assumed): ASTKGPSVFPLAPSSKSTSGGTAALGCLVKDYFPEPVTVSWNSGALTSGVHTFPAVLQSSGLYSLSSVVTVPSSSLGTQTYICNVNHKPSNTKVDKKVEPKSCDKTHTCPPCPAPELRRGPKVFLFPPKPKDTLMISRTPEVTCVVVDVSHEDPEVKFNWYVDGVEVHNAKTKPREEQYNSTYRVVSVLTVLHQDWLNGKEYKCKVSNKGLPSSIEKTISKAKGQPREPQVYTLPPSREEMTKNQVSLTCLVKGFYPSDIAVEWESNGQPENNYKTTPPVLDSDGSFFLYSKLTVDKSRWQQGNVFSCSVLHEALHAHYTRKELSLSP
Experiment: SPR (Biacore T200), 25 C, pH 7.4; SKA antibody captured by anti-rabbit IgG, Anti-hC5 Antibody injected 0-800 nM
endpoint-label: koff

| binder | result |
| --- | --- |
| SKA0054 (antibody, V domains shown) VH: QSLEESGGGLVQPEGSLTLTCTASGFSFSSSFWICWVRQAPGKGLEWLACIDAGSSDNTYYANWAKGRFTISKTSSTTVTLQMTSLTDADTATYFCARDRDAAGDAGYGYATSFNLWGPGTLVTVSS VL: AIDMTQTPSSVSAAVGGTVTINCQASESIYSNLAWYQQKPGQRPKLLIYLASTLASGVPSRFKGSGSGTEFTLTISDLECADAATYYCQSVYYDSRGDTFFWAFGGGTEVVVKG | 0.000197 s⁻¹ |
